Provenance of the data: patent US20040018971A1

# maps each entry to its pIC50
Target: HLA-A*6801 (human)
Assay: inhibition of 125I probe peptide binding to purified HLA
pIC50: −log10 of the molar value. Where no end group is shown, it is not given here. [ ]: non-standard residue; d: D form. Abu = CC[C@H](N)C(=O)O
assay.metric: pIC50

| binder | recorded.measurement |
| --- | --- |
| TV[Abu]AGG[Abu]AR (synthetic analog peptide; also called TVBAGGBAR) [Her2/neu.218.B3B7] | 8.10 |
| [Abu]VN[Abu]SQFLR (synthetic analog peptide; also called BVNBSQFLR) [Her2/neu.528.B1B4] | 8.00 |
| HVVPWDQLFK (synthetic analog peptide) [Her2/neu.478.V2K10] | 8.05 |
| IVWLGLRSLR (synthetic analog peptide) [Her2/neu.450.V2] | 8.14 |
